Target: T1, SELL (L-Selectin)
T1 construct: coated protein in the ELISA; also called SELL-Fc-His (R&D Systems)
T1 chain: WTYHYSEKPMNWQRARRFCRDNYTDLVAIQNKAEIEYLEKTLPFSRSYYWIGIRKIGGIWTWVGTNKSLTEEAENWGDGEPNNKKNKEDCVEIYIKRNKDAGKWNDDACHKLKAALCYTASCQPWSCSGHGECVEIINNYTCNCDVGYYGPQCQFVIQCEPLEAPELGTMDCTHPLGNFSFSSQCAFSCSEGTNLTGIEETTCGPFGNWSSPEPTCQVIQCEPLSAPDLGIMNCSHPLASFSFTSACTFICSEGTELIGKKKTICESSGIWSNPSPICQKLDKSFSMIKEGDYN
Experiment: ELISA on coated SELL-Fc-His, 150 ng IgG1; None 0.096
assay-endpoint: ELISA Absorbance (405 nm-570 nm)

{"binder": "HW-17 chimeric rabbit-human IgG1 LA/LA/PG (antibody, V domains shown, Fc-silenced (L234A/L235A/P329G) IgG1, lambda; Alexa Fluor 647-labeled in single-step flow cytometry; Cluster C-1) VH: QSLGESRGRLVTPDETLTLTCTVSGIDLSSNAMSWVRQAPGEGLEWIGTINTGGRAYYASWAKGRFTISRTSTTVDLKMTSLTTEDTATYFCARERYSDGRAYDIWGPGTLVTISS VL: SFVLTQPASVQVNLGQTVSLTCTADTLSRRYASWYQQKPGQAPVLLIYTDSNRPSGIPDRFSGSSSGNTATLTISGAQAGDEADYYCATDDGSGSIYQYVFGGGTQLTVTG", "quantitative-readout": 0.072}
{"binder": "HW-16 chimeric rabbit-human IgG1 LA/LA/PG (antibody, V domains shown, Fc-silenced (L234A/L235A/P329G) IgG1, kappa; Alexa Fluor 647-labeled in single-step flow cytometry; Cluster C-45) VH: QSLEESGGRLVTPGTPLTLTCTASGFSLSSYAMSWVRQAPGKGLEWIGTMPTGGGTYYASWAKGRFTISKTSTTVDLQITSPTTEDTATYFCAKHWNIWGPGTLVTISS VL: DIVLTQTPSSTSTAVGDTVTINCRASQSIGRNLAWFQQKPGQPPKLLIYRASNLASGVPSRFKGSGSRTQFTLTISGVQREDAATYYCLGSYSSSDTAFGGGTELEILR", "quantitative-readout": 0.177}
{"binder": "TH9-0022 (antibody, human IgG1, kappa, L234A L235A, V domains shown, also called TH9-022; negative control) VH: QSLEESGGRLVTPGTPLTLTCTVSGFSLSSYAMNWVRQAPGKGLEWIGIINSYGSTYYASWAKGRFTISKTSTTVDLKITSPTTEDTATYFCARVTYDSYGYGYAPYGMDLWGPGTLVTVSS VL: LVMTQTPSSTSNAVGGTVTIKCQASQSIGNVLAWYQQKPGQPPKLLIYAASTLASGVPSRVGGSRSGTEYTLTISGVQREDAATYYCLGSDSDSDIAFGGGTELEILR", "quantitative-readout": 0.081}
